- PROTOCOL: self-splicing fitness, log relative to wild type (ln ratio); higher = more splicing; Tetrahymena group I intron in knt gene, E. coli kanamycin selection, DiMSum; sequences stand for … in CUCUCU…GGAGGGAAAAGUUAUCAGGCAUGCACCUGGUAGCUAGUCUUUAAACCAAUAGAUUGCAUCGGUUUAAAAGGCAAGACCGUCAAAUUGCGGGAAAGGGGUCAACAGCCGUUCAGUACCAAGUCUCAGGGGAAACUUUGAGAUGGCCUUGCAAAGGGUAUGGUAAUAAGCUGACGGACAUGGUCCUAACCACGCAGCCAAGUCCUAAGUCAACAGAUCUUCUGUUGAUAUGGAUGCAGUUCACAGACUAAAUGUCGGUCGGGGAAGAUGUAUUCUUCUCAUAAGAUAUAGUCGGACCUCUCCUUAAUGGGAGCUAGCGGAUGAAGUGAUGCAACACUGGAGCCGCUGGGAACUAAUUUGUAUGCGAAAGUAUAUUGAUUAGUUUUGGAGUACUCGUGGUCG;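 note: selection with 25 µg/mL kanamycin versus none on LB agar overnight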
- MEASUREMENT_SETUP: 37 °C
OBSERVATION_TYPE: self-splicing fitness (ln)

Study these solved cases before continuing.
SEQUENCE_ENTRY	OBSERVATION_TYPE	TEST_VALUE
AAUUAGCAAUAUUACGUCCU	self-splicing fitness (ln)	0.561
CCUAAGCAAUAUUACGCCGU	self-splicing fitness (ln)	-3.22
UGAUAGCAAUAUUACGAUGG	self-splicing fitness (ln)	-1.72
UACCAGCAAUAUUACGUACC	self-splicing fitness (ln)	-2.23
AACAAGCAAUAUUACGUAUU	self-splicing fitness (ln)	-0.983
CACCAGCAAUAUUACGGUAC	self-splicing fitness (ln)	-2.13
UAUUAGCAAUAUUACGAAGU	self-splicing fitness (ln)	-2.12
GGGCAGCAAUAUUACGGACC	self-splicing fitness (ln)	0.0103

Enquiry: Recorded self-splicing fitness (ln) for `GGGUAGCAAUAUUACGAUUC` , please?
Return: 0.268

Enquiry: Recorded self-splicing fitness (ln) for `UAUCAGCAAUAUUACGCACC` , please?
Return: 0.3

Enquiry: Recorded self-splicing fitness (ln) for `AGAGAGCAAUAUUACGGGGA` , please?
Return: -1.84

----------
- PROTOCOL: self-splicing fitness, log relative to wild type (ln ratio); higher = more splicing; Tetrahymena group I intron in knt gene, E. coli kanamycin selection, DiMSum; sequences stand for … in CUCUCU…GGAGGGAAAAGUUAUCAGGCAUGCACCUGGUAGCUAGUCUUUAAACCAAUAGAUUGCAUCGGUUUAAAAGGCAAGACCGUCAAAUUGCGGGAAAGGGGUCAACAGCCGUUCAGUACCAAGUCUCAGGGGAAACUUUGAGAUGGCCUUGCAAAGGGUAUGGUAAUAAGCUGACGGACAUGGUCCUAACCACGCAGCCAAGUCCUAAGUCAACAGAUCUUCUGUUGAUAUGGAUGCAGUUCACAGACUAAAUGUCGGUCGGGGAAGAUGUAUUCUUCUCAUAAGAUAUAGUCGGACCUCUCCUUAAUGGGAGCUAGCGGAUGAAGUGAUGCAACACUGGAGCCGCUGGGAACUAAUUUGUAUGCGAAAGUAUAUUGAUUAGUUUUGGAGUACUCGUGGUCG
- MEASUREMENT_SETUP: 30 °C
Label rule, in plain words: self-splicing fitness (ln) of -2 and up is Satisfied, under -2 is Not satisfied.

Please review the following examples before continuing.
SEQUENCE_ENTRY	CATEGORY
CGGAAGCAAUAUUACGGAAA	Satisfied
UAAAAGCAAUAUUACGGACA	Satisfied
GCCCAGCAAUAUUACGCAUA	Satisfied

Enquiry: Is the recorded value of self-splicing fitness (ln) equal to or greater than -2 for this sequence? `GAGCAGCAAUAUUACGAUCU`
Return: Satisfied

Enquiry: Is the recorded value of self-splicing fitness (ln) equal to or greater than -2 for this sequence? `UACCAGCAAUAUUACGGCAU`
Return: Satisfied

Enquiry: Is the recorded value of self-splicing fitness (ln) equal to or greater than -2 for this sequence? `AAAUAGCAAUAUUACGAGGG`
Return: Not satisfied

Enquiry: Is the recorded value of self-splicing fitness (ln) equal to or greater than -2 for this sequence? `GUUCAGCAAUAUUACGCGUG`
Return: Satisfied

Enquiry: Is the recorded value of self-splicing fitness (ln) equal to or greater than -2 for this sequence? `UGCCAGCAAUAUUACGAACU`
Return: Not satisfied

Enquiry: Is the recorded value of self-splicing fitness (ln) equal to or greater than -2 for this sequence? `GAAUAGCAAUAUUACGUGUA`
Return: Satisfied

Enquiry: Is the recorded value of self-splicing fitness (ln) equal to or greater than -2 for this sequence? `CAGUAGCAAUAUUACGGUGA`
Return: Not satisfied

Enquiry: Is the recorded value of self-splicing fitness (ln) equal to or greater than -2 for this sequence? `GGCUAGCAAUAUUACGUGAU`
Return: Satisfied

Enquiry: Is the recorded value of self-splicing fitness (ln) equal to or greater than -2 for this sequence? `UCGAAGCAAUAUUACGGCUA`
Return: Not satisfied

Enquiry: Is the recorded value of self-splicing fitness (ln) equal to or greater than -2 for this sequence? `CUCAAGCAAUAUUACGCUAU`
Return: Not satisfied

Enquiry: Is the recorded value of self-splicing fitness (ln) equal to or greater than -2 for this sequence? `GGGCAGCAAUAUUACGGCAG`
Return: Not satisfied

Enquiry: Is the recorded value of self-splicing fitness (ln) equal to or greater than -2 for this sequence? `CAUUAGCAAUAUUACGUUCA`
Return: Not satisfied

Enquiry: Is the recorded value of self-splicing fitness (ln) equal to or greater than -2 for this sequence? `GUGUAGCAAUAUUACGAGGG`
Return: Not satisfied

Enquiry: Is the recorded value of self-splicing fitness (ln) equal to or greater than -2 for this sequence? `UAUGAGCAAUAUUACGCUUG`
Return: Not satisfied

Enquiry: Is the recorded value of self-splicing fitness (ln) equal to or greater than -2 for this sequence? `CGGGAGCAAUAUUACGGAGG`
Return: Not satisfied

Enquiry: Is the recorded value of self-splicing fitness (ln) equal to or greater than -2 for this sequence? `AUACAGCAAUAUUACGGAUU`
Return: Satisfied

Enquiry: Is the recorded value of self-splicing fitness (ln) equal to or greater than -2 for this sequence? `GUGUAGCAAUAUUACGGCUC`
Return: Satisfied

Enquiry: Is the recorded value of self-splicing fitness (ln) equal to or greater than -2 for this sequence? `CUGGAGCAAUAUUACGUAAU`
Return: Not satisfied

Enquiry: Is the recorded value of self-splicing fitness (ln) equal to or greater than -2 for this sequence? `GGUUAGCAAUAUUACGCUGG`
Return: Not satisfied

Enquiry: Is the recorded value of self-splicing fitness (ln) equal to or greater than -2 for this sequence? `GUCCAGCAAUAUUACGACGG`
Return: Not satisfied

Enquiry: Is the recorded value of self-splicing fitness (ln) equal to or greater than -2 for this sequence? `GUAGAGCAAUAUUACGUUGU`
Return: Not satisfied
